Source listed as ChEMBL document CHEMBL4689842.

# Tested on: HEK-293T
# testMethodNotes: Multiplex assay against HEK293T
# Type: toxicity, cell-based
# conditionsUsed: human, 12 h, 10 µM, compound concentration 10 uM, replicate 2
Each entry below lists one item and its recorded Population Apoptotic (%) value.
// return numeric value only (unit: %, not printed)

Population Apoptotic (%) in this record for Cl.Oc1ccc2c3c1O[C@H]1c4[nH]c5c(c4C[C@@]4(O)[C@@H](C2)N(CC2CC2)CC[C@]314)C[C@@]1(O)[C@H]2Cc3ccc(O)c4c3[C@@]1(CCN2CC1CC1)[C@H]5O4 : 7

Lab note: measured Population Apoptotic (%) of CCc1cccc(CC)c1NC(=O)c1nn(C)c2c1CCc1cnc(Nc3ccc(C(=O)NC4CCN(C)CC4)cc3OC(F)(F)F)nc1-2 was 73

Sample O=C(Nc1cccnn1)N1CCC(=Cc2cccc(Oc3ccc(C(F)(F)F)cn3)c2)CC1 ; Population Apoptotic (%) observed: 8

// COc1cc2ncnc(Nc3ccc(F)c(Cl)c3)c2cc1NC(=O)/C=C/CN1CCCCC1 [DACOMITINIB ANHYDROUS] : Population Apoptotic (%) value = 12

Notebook: Cc1ccc2nc(NCCN)c3ncc(C)n3c2c1.O=C(O)C(F)(F)F.O=C(O)C(F)(F)F , Population Apoptotic (%) read as 26

// field: Population Apoptotic (%); key: CCCS(=O)(=O)c1nc(NC2CC2)cc(-c2ccc3c(ccn3C3CC(C)(C)NC(C)(C)C3)c2)n1 ; value = 74

The reported Population Apoptotic (%) of the compound COc1cccc2cc(-c3nc([C@H]4CC[C@H](C(=O)O)CC4)n4ncnc(N)c34)[nH]c12 was 10

S=C(NCCCc1c[nH]cn1)NCCCN(Cc1ccc(Cl)c(Cl)c1)c1ccc(Br)cn1 has a reported Population Apoptotic (%) of 84

====

# System: HEK-293T
# testMethodNotes: Multiplex assay against HEK293T
# Format: toxicity, cell-based
# conditionsUsed: human, 12 h, 10 µM, compound concentration 10 uM, replicate 1
Each item that follows carries a reported Population Hoechst High Intensity Objects (%).
A number alone suffices; assume %.

Cl.Oc1ccc2c3c1O[C@H]1c4[nH]c5c(c4C[C@@]4(O)[C@@H](C2)N(CC2CC2)CC[C@]314)C[C@@]1(O)[C@H]2Cc3ccc(O)c4c3[C@@]1(CCN2CC1CC1)[C@H]5O4: 12
CN1C2CCC1CC(OC(c1ccc(F)cc1)c1ccc(F)cc1)C2.Cl (stereo not given): 13
COc1cc2ncnc(Nc3ccc(F)c(Cl)c3)c2cc1NC(=O)/C=C/CN1CCCCC1 [DACOMITINIB ANHYDROUS]: 12
CNc1cc(Oc2cc(C(=O)Nc3cc(N4CCN(C)CC4)cc(C(F)(F)F)c3)ccc2C)ncn1: 21
Cc1ccc2nc(NCCN)c3ncc(C)n3c2c1.O=C(O)C(F)(F)F.O=C(O)C(F)(F)F: 14

The compound O=C(Nc1ccc(-c2ccnc(Nc3ccc(N4CCOCC4)cc3)n2)cc1)[C@@H]1CCCN1 showed Population Hoechst High Intensity Objects (%) equal to 18

# Population Hoechst High Intensity Objects (%) (compound: COc1cc(N2CCN(C)CC2)ccc1Nc1ncc2c(n1)N(C)c1ccccc1C(=O)N2C ) is 13

// CCCS(=O)(=O)Nc1ccc(F)c(C(=O)c2c[nH]c3ncc(Cl)cc23)c1F : Population Hoechst High Intensity Objects (%) value = 13

Population Hoechst High Intensity Objects (%) reading for COC(=N)c1nc2ccc3ncnc(Nc4ccc(OC)cc4F)c3c2s1 : 10

Entry CNC(=O)c1ccc(Nc2nc(OC3CCCC3)c3c(-c4ccc5nc(C)oc5c4)c[nH]c3n2)c(OC)c1 ; Population Hoechst High Intensity Objects (%) = 20
